# koff per entry
# system: T1, HER3 extracellular domain recombinant protein (human, UniProt P21860 20-643)
# T1 construct: extracellular domain; also called HER3 extracellular domain protein; HER3 protein
# T1 sequence (P21860 20-643): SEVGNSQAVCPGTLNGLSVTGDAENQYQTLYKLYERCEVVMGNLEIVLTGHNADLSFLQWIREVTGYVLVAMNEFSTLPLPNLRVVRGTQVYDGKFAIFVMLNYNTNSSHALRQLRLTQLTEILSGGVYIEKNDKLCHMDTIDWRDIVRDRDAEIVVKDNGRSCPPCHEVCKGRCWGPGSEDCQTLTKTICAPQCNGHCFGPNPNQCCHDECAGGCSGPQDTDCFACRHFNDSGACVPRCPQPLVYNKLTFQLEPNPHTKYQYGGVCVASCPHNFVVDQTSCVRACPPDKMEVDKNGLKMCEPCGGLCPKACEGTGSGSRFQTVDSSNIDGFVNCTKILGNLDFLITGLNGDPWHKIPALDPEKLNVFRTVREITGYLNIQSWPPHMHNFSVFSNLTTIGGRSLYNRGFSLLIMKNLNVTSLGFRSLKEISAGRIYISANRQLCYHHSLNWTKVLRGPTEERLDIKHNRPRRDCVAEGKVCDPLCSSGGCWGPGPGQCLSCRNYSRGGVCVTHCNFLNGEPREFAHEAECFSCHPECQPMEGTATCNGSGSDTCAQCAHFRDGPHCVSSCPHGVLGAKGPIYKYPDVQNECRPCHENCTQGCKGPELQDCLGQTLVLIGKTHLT
# assayInfo: SPR, ProteOn XPR36; antibody captured by goat anti-human antibody, HER3 extracellular domain 1.25-20 nM as analyte, Langmuir model
State just the number; it will be interpreted in s⁻¹.

These solved cases illustrate the format of a correct answer.
{"binder": "humanized antibody hu1044-3 (VL69, VH48 back mutation) (antibody, human IgG1, V domains shown) VH: QVQLVQSGAEVKKPGSSVKVSCKASGGTFSNYWIDWVRQAPGQGLEWIGEILPGSGGTDYNEKFKGRVTITADTSTSTAYMELSSLRSEDTAVYYCARDDYDVFAYWGQGTLVTVSS VL: DIVMTQSPGTLSLSPGERATLSCRSSKSLLHSNGITYLYWYQQKPGQAPRLLIYQMSNLASGIPDRFSSSGSGTDFTLTISRLEPEDFAVYYCAQNLELPWTFGQGTKVEIKR", "koff [s⁻¹]": 0.000494}
{"binder": "humanized antibody hu1044-1 (VL69 back mutation) (antibody, human IgG1, V domains shown, h1044-0 with Gly to Ser at VL69) VH: QVQLVQSGAEVKKPGSSVKVSCKASGGTFSNYWIDWVRQAPGQGLEWMGEILPGSGGTDYNEKFKGRVTITADTSTSTAYMELSSLRSEDTAVYYCARDDYDVFAYWGQGTLVTVSS VL: DIVMTQSPGTLSLSPGERATLSCRSSKSLLHSNGITYLYWYQQKPGQAPRLLIYQMSNLASGIPDRFSSSGSGTDFTLTISRLEPEDFAVYYCAQNLELPWTFGQGTKVEIKR", "koff [s⁻¹]": 0.000502}

Please find the next binder below.
Query: Consider the binder shown here: humanized antibody hu1044-4 (VL69, VH68 back mutation) (antibody, human IgG1, V domains shown) VH: QVQLVQSGAEVKKPGSSVKVSCKASGGTFSNYWIDWVRQAPGQGLEWMGEILPGSGGTDYNEKFKGRATITADTSTSTAYMELSSLRSEDTAVYYCARDDYDVFAYWGQGTLVTVSS VL: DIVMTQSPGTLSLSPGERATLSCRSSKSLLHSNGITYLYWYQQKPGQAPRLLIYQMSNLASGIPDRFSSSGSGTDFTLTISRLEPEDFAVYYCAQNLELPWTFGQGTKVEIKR What is its recorded koff?
Response: 0.000388
